# Test system: M14 melanoma
# Experimental Protocol: NCI-60 one-dose screen, 48 h (100 = growth as untreated, 0 = no growth, -100 = all killed)
# Condition Summary: 10 µM unless noted
About 83,000 compounds went through this panel and 20% of them were active in at least one assay; those are over-represented in the sample as a whole.
Below: a set of entries, each annotated with reported growth.
Hi! Could you send only the number? It should be in %, unit omitted.

Find the measured growth of COc1ccccc1-n1cc(C#N)c(N)c1C(=O)c1ccc(Br)cc1 with M14 melanoma as test system.
42.3

###

# Tested on: HCT-15 colon
# Experimental Protocol: NCI-60 one-dose screen, 48 h (100 = growth as untreated, 0 = no growth, -100 = all killed)
# Condition Summary: 10 µM unless noted
This is part of a sample that, as a whole, favours compounds with a hit. Of some 83,000 tested, about 20% had one in any assay.
Readout Kind: growth (%)
Give just the number in %; leave the unit off.

Please look at N=c1c2cc(-c3ccccc3)oc2ncn1/N=C/c1ccc(Br)cc1 and tell me its recorded growth on HCT-15 colon.
57.9

With HCT-15 colon as the test system, provide measured growth for this compound: O=C(O)c1ccc(-n2cc(CNc3cccc(Cl)c3)c(-c3ccc(F)cc3)n2)cc1
80.7

# assay system HCT-15 colon: give growth of Cc1cc(C)c(N2C(=O)CC(Nc3ccc(Cl)cc3Cl)C2=O)c(C)c1 (stereo not given)
102

Find the measured growth of COc1cc(OC)c(/C=C/S(=O)(=O)Cc2ccc(OC)c(NC(=O)CCC(=O)NO)c2)c(OC)c1 with HCT-15 colon as test system.
8.57

Write down the reported growth (system: HCT-15 colon) of CN1CCN(Cc2ccc(NC(=O)c3cncc(C#Cc4cnc5ccc(OCC6(C)COC6)nn45)c3)cc2C(F)(F)F)CC1
-78.6

###

# Test system: HT29 colon
# Experimental Protocol: NCI-60 one-dose screen, 48 h (100 = growth as untreated, 0 = no growth, -100 = all killed)
# Condition Summary: 10 µM unless noted
# Description: Growth inhibition of the HT29 human tumor cell line is measured as a screen for anti-cancer activity. Cells are grown in 96 well plates and exposed to the test compound for 48 hours. Compounds are tested at a single concentration, which is 10^-5 M for most compounds. The reported endpoint is percent growth (GI% or GIPRCNT), where numbers from 0 - 100% represent growth inhibition, and numbers from -100% - 0 represent cell death. For example, a value of 40 represents 60% growth inhibition. […]
Compounds without any hit were thinned out: in the full panel of roughly 83,000, 20% have a hit.
The following ranges of growth define the classes used here: interval 1 = under 10%, interval 2 = from 10% up to 60%, interval 3 = 60% and over

Lab log: CC(=O)Nc1cccc(Nc2nc(N[C@@H](C)c3ccccc3)c3ccccc3n2)c1 — assign growth category
interval 1

Category of COc1cc(OC)cc(C(=O)Nc2sc3c(c2C(N)=O)CCC(=O)C3)c1 :
interval 2

Band of COc1ccc(NC(=O)Nc2ccc3c(ccn3C(=O)c3cccc(F)c3)c2)cc1 ?
interval 3

Any idea which band Cc1ccc(C2=Nn3c(nnc3-c3ccccc3)SC2)cc1 is in?
interval 1

###

# Test system: MDA-MB-435 melanoma
# Experimental Protocol: NCI-60 one-dose screen, 48 h (100 = growth as untreated, 0 = no growth, -100 = all killed)
# Condition Summary: 10 µM unless noted
The panel holds about 83,000 compounds, 20% with a hit somewhere; the sample as a whole holds those more often.
Decide by growth: equal to or exceeding 70% means Yes, less means No.

* N#Cc1c(-c2cccs2)cc(-c2cnccn2)nc1SCC(=O)c1ccc(F)cc1 | Yes

Check the entry CCCSc1nc(Nc2ccc(/C(C)=N\NC(N)=S)cc2)c(C#N)c(-c2ccccc2)n1 : does growth equal or exceed 70%?
Yes

Does the reported growth for COc1cccc(O)c1/C=C(/C)c1ccc2c(OC)cccc2[o+]1 fall at or above the 70% mark?
Yes

Does the reported growth for O=C(CN1CCN(c2cc(=O)n(-c3ccccc3)c3ccccc23)CC1)Nc1nc(-c2ccccc2)cs1 fall at or above the 70% mark?
Yes

State whether the measured growth reaches 70%, counting equality as reaching it, for COc1cc(-c2nc(SC(C)C)n(C(C)C)c(=O)c2C#N)ccc1OCc1ccccc1
Yes

Does the reported growth for O=C1[C@H]2Cc3c([nH]c4ccccc34)[C@@H](c3ccc(Cl)cc3)N2C(=O)CN1C1CCN(Cc2ccccc2)CC1 fall at or above the 70% mark?
No

Answer whether growth of CS(=O)(=O)Nc1cc(-c2ccc3ncc(C#N)c(NCc4ccccc4F)c3c2)cnc1Cl is greater than or equal to 70%.
No

Assess whether reported growth for COc1ccc2c(c1)c(CC(=O)[Se]CC#N)c(C)n2C(=O)c1ccc(Cl)cc1 sits at 70% or higher.
No

Hello, I need to know if O=[N+]([O-])c1cc(/C=N/Nc2nc(N/N=C/c3ccc(Cl)c([N+](=O)[O-])c3)nc(N3CCCCC3)n2)ccc1Cl has measured growth not below 70%. Thanks!
Yes

###

# Test system: SW-620 colon
# Experimental Protocol: NCI-60 one-dose screen, 48 h
# Condition Summary: 10 µM unless noted
Compounds without any hit were thinned out: in the full panel of roughly 83,000, 20% have a hit. Active and inactive are the calls of the source. Rule for the calls: active = growth percent below 10; inactive = the rest.
Valid outcomes are listed here; reply with one: YES (active), NO (inactive)

The following compounds have reported results that may help.
• Cc1ccc(S(=O)(=O)N(CC[C@@H]2C[C@H]2c2cc3ccccc3o2)S(=O)(=O)c2ccc(C)cc2)cc1 = NO
• N#Cc1c(NC(=O)c2cccc(C(F)(F)F)c2F)sc2c1CCC(=O)C2 = YES
• Nc1nc(Nc2ccccc2SSc2ccccc2Nc2nc(N)nc(-c3cccc(Br)c3)n2)nc(-c2cccc(Br)c2)n1 = NO
• O=C(NNc1nc2cc(F)c(F)cc2n2cccc12)c1cnccn1 = NO

Give the logged outcome of this assay for the following compound: O=C(CSc1nnc(-c2ccc(Cl)cc2)n1-c1ccccc1)Nc1ccc(Br)cc1
NO

Would you mind telling me which call this test gave Cc1nn(-c2ccccc2)c2ncnc(N/N=C/c3ccccc3)c12 ?
NO

Answer briefly: the call reported for Nc1nc(N)c2c(n1)NC(c1ccc(Cl)cc1)CC(c1ccc(Nc3nc(NCCO)nc(N4CCOCC4)n3)cc1)=N2 (stereo not given) in this assay.
NO

###

# Test system: HT29 colon
# Experimental Protocol: NCI-60 one-dose screen, 48 h (100 = growth as untreated, 0 = no growth, -100 = all killed)
# Condition Summary: 10 µM unless noted
The panel holds about 83,000 compounds, 20% with a hit somewhere; the sample as a whole holds those more often. Calls of active or inactive are those of the source. How the source made its calls: active means growth percent below 10; inactive means the rest.
Readings of growth for the listed molecules

Previously resolved entries follow.
- O=C(CN1CCN(c2cc(=O)n(-c3ccccc3)c3ccccc23)CC1)Nc1nc(-c2ccc(Cl)cc2)cs1: 63.8% (inactive)
- CNCc1cccc2c1OCCCCCCC(C)(O)CC(C)(C)S(=O)(=O)c1ccc(cc1)-c1cnc(N)c(n1)C(=O)N2 (centres undefined): -8.67% (active)
- O=S(=O)(NCCCNc1nccc(-c2[nH]c(-c3ccccc3)nc2-c2ccc(Cl)c(O)c2)n1)c1cccc2ccccc12: 38.6% (inactive)
- CC(C)(C)c1ccc(C(=O)Nc2nc3ccc(O)cc3s2)cc1: 2.02% (active)
- Cc1ccc(NC(=S)NNC(=S)Nc2ccc(C)cc2)cc1: 105% (inactive)
- COc1cc(-c2ccc3ncnc(NCc4ccccc4)c3c2)cnc1OC: 64.5% (inactive)

Identify the reported growth for the following entry. CCNC(=O)N1CCc2cc(OC)c(OCCc3ccc(OC)cc3)cc2C1c1ccc([N+](=O)[O-])cc1C (centres undefined)
4.69% (active)

Look up growth of O=C(O)c1cn(C2CC2)c2cc(N3CCN(C(=O)CN4C(=O)CSC4=O)CC3)c(F)cc2c1=O and report it.
112% (inactive)

Please supply the value of reported growth for the item NC(=O)c1cccc(-n2ccc3cc(NC(=O)Nc4ccc(N5CCOCC5)c(C(F)(F)F)c4)ccc32)n1
4.89% (active)

###

Recorded growth by entry
# Test system: NCI-H460 lung
# Experimental Protocol: NCI-60 one-dose screen, 48 h (100 = growth as untreated, 0 = no growth, -100 = all killed)
# Condition Summary: 10 µM unless noted
# Procedure: Growth inhibition of the NCI-H460 human Non-Small Cell Lung tumor cell line is measured as a screen for anti-cancer activity. Cells are grown in 96 well plates and exposed to the test compound for 48 hours. Compounds are tested at a single concentration, which is 10^-5 M for most compounds. The reported endpoint is percent growth (GI% or GIPRCNT), where numbers from 0 - 100% represent growth inhibition, and numbers from -100% - 0 represent cell death. […]
About 83,000 compounds went through this panel and 20% of them were active in at least one assay; those are over-represented in the sample as a whole.
Answer format: numeric, % implied, no suffix.

As a guide, the following entries are already answered.
- CCCCCc1ccc(S(=O)(=O)Nc2cccc(-c3csc(NC(=O)CN4CCN(C)CC4)n3)c2)cc1: 21.5
- C#Cc1nc(C(C)=O)cs1: 106
- CCCCCc1ccc(S(=O)(=O)Nc2cccc(-c3csc(NCCN4CCN(C)CC4)n3)c2)cc1: -9.25
- CNC1CCc2c(sc(NC(=O)c3ccc(C(C)(C)C)cc3)c2C(N)=O)C1 (centres undefined): 2.17
- O=C(CSc1nnc(-c2ccc3nc(-c4ccccc4)[nH]c3c2)o1)Nc1ccc(C(=O)/C=C/c2ccccc2)cc1: 113

Quote NCI-H460 lung growth for entry CCNC(=O)N1CCc2cc(OC)c(OCCc3ccc(OC)cc3)cc2C1c1ccc([N+](=O)[O-])cc1C (centres undefined) .
2.37

Determine reported growth for CN1CCN(Cc2ccc(NC(=O)c3cncc(C#Cc4cnc5ccc(NCCCO)nn45)c3)cc2C(F)(F)F)CC1 ; test system: NCI-H460 lung.
-85.6

Write down the reported growth (system: NCI-H460 lung) of C/C(=N\O)[C@H]1C[C@]23CC[C@]4(C)[C@H](CC[C@@H]5[C@@]6(C)CC/C(=N/O)C(C)(C)[C@@H]6CC[C@]54C)[C@H]2[C@H](C)C1(C)OC3
106

Name the value of growth reported for C=CC(=O)N1CC=C(c2cc3c(N[C@H](C)c4ccccc4)ncnc3[nH]2)CC1 when tested on NCI-H460 lung.
101

This collection of values is drawn from PubChem BioAssay (NCI).
